Values were extracted from patent US20030068675.

# assay.target: ZFP SBS#1106 (synthetic)
# Sequence (chain, as listed by the source): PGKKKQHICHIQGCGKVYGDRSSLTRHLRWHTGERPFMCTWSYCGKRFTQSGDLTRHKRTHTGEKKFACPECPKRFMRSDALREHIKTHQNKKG
# experiment.description: EMSA
# experimental.setup: tags: MBP fusion
pKd: −log10 of the molar value.
value.type: pKd

                                     binder  measured
0  CTGGCAGCC (dsDNA) DNA 1: CTGGCAGCC DNA 2: GGCTGCCAG      9.72
